assayed system: Rap guanine nucleotide exchange factor 3 (Homo sapiens) (UniProt O95398)
test summary: Counterscreen qHTS for agonist of cAMP-regulated guanine nucleotide exchange factor 3 (EPAC1) (AID 1645889); note: % of control where 0% means no effect; nearly all actives have a fitted effect of over 40% in size
experimental setup: EPAC1 Rap1B-BODIPY-GDP exchange, fluorescence; series mostly up to 154 µM
Inconclusive results are not listed. Activity calls are given as the source filed them. Calls come from the whole dose curve; as a rule, active = well fitted activation curve with a large enough effect; inconclusive = small, poorly fitted or top-dose-only effect, or another doubt; inactive = no such curve, though single readings can be large or run the other way.
value kind: activation

>>> val("O=C(O)COc1ccc(NC(=O)C(c2ccccc2)c2ccccc2)cc1")
"inactive"
>>> val("Cc1cn([C@H]2C[C@H](O)[C@@H](CCC(=O)NCc3ccc4c(c3)OCO4)O2)c(=O)[nH]c1=O")
"inactive"
>>> val("Cn1cc([C@]2(O)C(=O)Nc3ccc(F)cc32)c2ccccc21")
"12.7% [at 30.8 µM] (inactive)"
>>> val("CCOc1ccccc1C(=O)N(Cc1cccs1)c1ccc(Cl)cc1")
"inactive"
>>> val("Cc1cccn2c(=O)cc(CSc3nnc(NC(=O)COc4ccccc4)s3)nc12")
"inactive"

# batch size: 3; output activation per entry
1. CCSc1nc2ccccc2c(OCc2ccccc2Cl)c1C(=O)OC
2. Oc1ccc(/C=N/Nc2ncnc3c2ncn3Cc2ccccc2)cc1O
3. COc1ccc(-c2nnc(SCC(=O)c3ccco3)n2-c2ccccc2)cc1

1. inactive
2. 1.06% [at 30.8 µM] (inactive)
3. 4.19% [at 30.8 µM] (inactive)

# batch size: 2; output activation per entry
1. O=C(N/N=C/c1c(O)n(-c2ccccc2Cl)c(=O)c2ccccc12)c1cccnc1
2. Cc1csc(SCC(=O)NC23CC4CC(CC(C4)C2)C3)n1

["inactive", "22.6% [at 30.8 µM] (inactive)"]
